B1: Osa-1-4 twister ribozyme (parent)
chain: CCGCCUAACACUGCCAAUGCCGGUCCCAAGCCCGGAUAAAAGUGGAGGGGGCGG

- Variants of: B1
- assay.procedure: self-cleavage, relative activity (ratio to wild type); higher = more cleavage; co-transcriptional
reported.endpoint: self-cleavage

Incoming: For the variant A10U A36G , what self-cleavage is on record?
Outgoing: 0.05

Incoming: For the variant A41C U12A , what self-cleavage is on record?
Outgoing: 0.97

Incoming: For the variant A8C C11A , what self-cleavage is on record?
Outgoing: 0.1

Incoming: For the variant A10G A17G , what self-cleavage is on record?
Outgoing: 0.64

Incoming: For the variant C11G C26A , what self-cleavage is on record?
Outgoing: 0.03

Incoming: For the variant A41G , what self-cleavage is on record?
Outgoing: 0.84

Incoming: For the variant A8G C27A , what self-cleavage is on record?
Outgoing: 0.14

Incoming: For the variant A39U G53C , what self-cleavage is on record?
Outgoing: 0.07

Incoming: For the variant A40C U18G , what self-cleavage is on record?
Outgoing: 0.09

Incoming: For the variant C14U G19U , what self-cleavage is on record?
Outgoing: 0.05

Incoming: For the variant A10U C14U , what self-cleavage is on record?
Outgoing: 0.04

Incoming: For the variant C31G U24C , what self-cleavage is on record?
Outgoing: 0.03

Incoming: For the variant A10U A28U , what self-cleavage is on record?
Outgoing: 0.05

Incoming: For the variant G35A , what self-cleavage is on record?
Outgoing: 0.9

Incoming: For the variant A7C G44C , what self-cleavage is on record?
Outgoing: 0.05

Incoming: For the variant A36C U24A , what self-cleavage is on record?
Outgoing: 0.06

Incoming: For the variant G47C G49C , what self-cleavage is on record?
Outgoing: 0.06

Incoming: For the variant C26A U24G , what self-cleavage is on record?
Outgoing: 0.01

Incoming: For the variant C15G G42U , what self-cleavage is on record?
Outgoing: 0.05

Incoming: For the variant C21U C52G , what self-cleavage is on record?
Outgoing: 1.02

Incoming: For the variant A16G G13A , what self-cleavage is on record?
Outgoing: 0.2

Incoming: For the variant C25A C52U , what self-cleavage is on record?
Outgoing: 0.17
